Please provide measured pIC50 for the entries that follow.
# assayed target: ENaC (Epithelial Sodium Channel), Mouse kidney M-1 cells (Mus musculus, UniProt Q61180+Q9WU38+Q9WU39)
# Construct: Mouse kidney M-1 cells were cultivated in DMEM containing 5% FCS and 5 μM dexamethasone; endogenous in cells
# Sequence (Q61180 whole entry): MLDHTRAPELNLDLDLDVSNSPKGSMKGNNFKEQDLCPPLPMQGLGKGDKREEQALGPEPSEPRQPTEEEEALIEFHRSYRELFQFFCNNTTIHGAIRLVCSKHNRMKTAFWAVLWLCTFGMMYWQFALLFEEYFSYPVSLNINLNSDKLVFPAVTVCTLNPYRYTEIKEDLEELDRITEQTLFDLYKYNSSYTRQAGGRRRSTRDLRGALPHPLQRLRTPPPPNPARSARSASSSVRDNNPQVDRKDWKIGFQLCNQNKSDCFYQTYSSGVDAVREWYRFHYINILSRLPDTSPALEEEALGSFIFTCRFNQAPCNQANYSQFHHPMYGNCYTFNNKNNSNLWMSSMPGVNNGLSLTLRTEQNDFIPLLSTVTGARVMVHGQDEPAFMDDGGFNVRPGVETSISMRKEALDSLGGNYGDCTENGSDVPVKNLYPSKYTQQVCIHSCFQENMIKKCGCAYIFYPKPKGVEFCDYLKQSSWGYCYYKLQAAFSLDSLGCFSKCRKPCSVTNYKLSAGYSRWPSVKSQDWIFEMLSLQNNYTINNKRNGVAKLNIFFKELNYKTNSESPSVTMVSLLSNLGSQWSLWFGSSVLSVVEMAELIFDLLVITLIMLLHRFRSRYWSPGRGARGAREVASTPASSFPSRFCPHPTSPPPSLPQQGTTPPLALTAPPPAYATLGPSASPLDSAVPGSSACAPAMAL
# Sequence (Q9WU38 whole entry): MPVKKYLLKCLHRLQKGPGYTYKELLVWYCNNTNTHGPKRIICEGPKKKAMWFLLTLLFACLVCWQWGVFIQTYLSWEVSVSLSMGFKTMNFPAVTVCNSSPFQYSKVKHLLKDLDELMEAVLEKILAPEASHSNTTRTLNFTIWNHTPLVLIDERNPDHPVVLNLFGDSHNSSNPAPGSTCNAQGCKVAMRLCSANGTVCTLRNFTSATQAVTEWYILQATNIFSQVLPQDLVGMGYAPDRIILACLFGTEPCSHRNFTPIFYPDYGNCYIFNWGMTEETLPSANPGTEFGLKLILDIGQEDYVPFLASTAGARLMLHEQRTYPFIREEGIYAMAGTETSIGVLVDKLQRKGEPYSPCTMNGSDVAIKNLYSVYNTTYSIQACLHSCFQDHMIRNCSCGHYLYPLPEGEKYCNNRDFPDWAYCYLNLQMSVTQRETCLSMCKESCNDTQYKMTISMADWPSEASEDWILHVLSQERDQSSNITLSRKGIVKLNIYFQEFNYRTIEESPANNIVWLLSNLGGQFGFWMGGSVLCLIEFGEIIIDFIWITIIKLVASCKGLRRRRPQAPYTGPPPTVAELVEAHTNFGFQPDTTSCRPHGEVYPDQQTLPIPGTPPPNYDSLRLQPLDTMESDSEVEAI
# Sequence (Q9WU39 whole entry): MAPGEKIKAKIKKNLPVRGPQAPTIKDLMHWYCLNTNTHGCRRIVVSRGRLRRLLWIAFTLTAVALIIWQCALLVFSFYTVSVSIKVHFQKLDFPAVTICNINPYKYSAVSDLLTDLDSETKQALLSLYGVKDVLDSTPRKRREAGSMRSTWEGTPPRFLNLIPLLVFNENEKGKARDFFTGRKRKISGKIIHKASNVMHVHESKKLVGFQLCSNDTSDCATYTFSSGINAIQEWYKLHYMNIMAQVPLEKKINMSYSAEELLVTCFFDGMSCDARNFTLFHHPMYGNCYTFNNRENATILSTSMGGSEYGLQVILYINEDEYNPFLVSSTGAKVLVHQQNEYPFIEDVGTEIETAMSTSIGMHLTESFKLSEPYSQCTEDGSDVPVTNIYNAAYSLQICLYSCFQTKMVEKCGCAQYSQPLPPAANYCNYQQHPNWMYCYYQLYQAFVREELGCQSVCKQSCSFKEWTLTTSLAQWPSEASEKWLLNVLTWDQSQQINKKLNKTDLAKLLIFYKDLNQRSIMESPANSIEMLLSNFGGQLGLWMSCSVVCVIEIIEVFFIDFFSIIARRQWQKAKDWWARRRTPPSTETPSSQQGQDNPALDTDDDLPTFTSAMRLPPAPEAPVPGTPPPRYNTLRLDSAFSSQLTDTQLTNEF
# protocol details: Ussing Chamber assay: inhibition of amiloride sensitive short circuit current in M-1 cells
# condition set: apical application, 37° C.
pIC50 is a log-scale quantity: -log10 of the concentration expressed in molar.

Q. Give the measured pIC50 of CCn1c(CNC(=O)c2nc(Cl)c(N)nc2N)[n+](CC(=O)N2CCC(N(C)C)CC2)c2ccc(OC)cc21 .
A. 6.96

Q. Give the measured pIC50 of COc1ccc2c(c1)n(CCF)c(CNC(=O)c1nc(Cl)c(N)nc1N)[n+]2CCOCCOCCO .
A. 8.70

Q. Give the measured pIC50 of CCn1c(CNC(=O)c2nc(Cl)c(N)nc2N)[n+](CC(=O)NCCN(C)C)c2ccc(OC)cc21.O=C(O)C(F)(F)F.O=C([O-])C(F)(F)F .
A. 8.10

Q. Give the measured pIC50 of CC[n+]1c(CNC(=O)c2nc(Cl)c(N)nc2N)n(CCCc2ccc(OCP(C)(C)=O)cc2)c2cc(OC)ccc21.O=C([O-])C(F)(F)F .
A. 8.10

Q. Give the measured pIC50 of CCn1c(CNC(=O)c2nc(Cl)c(N)nc2N)[n+](CC(=O)N(C)CCOC)c2ccc(OC)cc21.[Br-] .
A. 8.15

Q. Give the measured pIC50 of CCn1c(CNC(=O)c2nc(Cl)c(N)nc2N)[n+](CC(=O)c2ccc(OC)c(OC)c2)c2ccc(OC)cc21.O=C([O-])C(F)(F)F .
A. 7.89

Q. Give the measured pIC50 of COc1ccc2c(c1)[n+](CCF)c(CNC(=O)c1nc(Br)c(N)nc1N)n2CCOCCOCCO .
A. 8.70

Q. Give the measured pIC50 of CCn1c(CNC(=O)c2nc(Cl)c(N)nc2N)[n+](CC(=O)N2CCOCC2)c2ccc(OC)cc21.[Br-] .
A. 8.30

Q. Give the measured pIC50 of CCn1c(CNC(=O)c2nc(Cl)c(N)nc2N)[n+](CCCC(=O)NCCN(C)C)c2ccc(OC)cc21 .
A. 9.00

Q. Give the measured pIC50 of CC[n+]1c(CNC(=O)c2nc(Cl)c(N)nc2N)n(CC2(CCc3ccccc3)CCN(C(=O)NC3CCN(C)CC3)CC2)c2ccccc21 .
A. 8.70

Q. Give the measured pIC50 of C=CC[n+]1c(CNC(=O)c2nc(Cl)c(N)nc2N)n(CCOCCOCCO)c2ccc(OC)cc21 .
A. 9.40

Q. Give the measured pIC50 of CCn1c(CNC(=O)c2nc(Cl)c(N)nc2N)[n+](CC(=O)NC)c2ccc(OC)cc21 .
A. 8.70

Q. Give the measured pIC50 of CCn1c(CNC(=O)c2nc(Cl)c(N)nc2N)[n+](CC(=O)N(CCOC)CCOC)c2ccc(OC)cc21 .
A. 8.00

Q. Give the measured pIC50 of CC[n+]1c(CNC(=O)c2nc(Cl)c(N)nc2N)n(C2CCN(C(=O)NCCOC)CC2)c2ccccc21.O=C[O-] .
A. 9.00
